target.or.system: 5-hydroxytryptamine receptor 2A (Rattus norvegicus)
Sequence (P14842 whole entry): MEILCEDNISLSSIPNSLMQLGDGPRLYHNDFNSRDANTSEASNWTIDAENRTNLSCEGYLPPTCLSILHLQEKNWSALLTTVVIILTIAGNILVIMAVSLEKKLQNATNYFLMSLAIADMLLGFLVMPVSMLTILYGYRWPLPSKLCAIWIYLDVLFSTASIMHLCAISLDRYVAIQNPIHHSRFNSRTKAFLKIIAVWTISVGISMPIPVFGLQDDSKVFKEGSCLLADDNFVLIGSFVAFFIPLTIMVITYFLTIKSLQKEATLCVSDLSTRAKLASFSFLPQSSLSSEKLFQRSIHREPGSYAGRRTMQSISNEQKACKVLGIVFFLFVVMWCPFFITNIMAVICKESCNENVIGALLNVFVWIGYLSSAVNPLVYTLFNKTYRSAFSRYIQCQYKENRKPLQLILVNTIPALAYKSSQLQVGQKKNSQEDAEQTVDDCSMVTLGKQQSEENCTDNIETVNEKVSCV
measurement.description: Displacement of [3H]ketanserin from serotonin 5HT2A receptor in rat brain cortex
Format: tissue-based
pKi: −log10 of the molar value.
Consider the following compounds and their measured pKi readings.

{"columns": ["chemical.structure", "pKi"],
 "data": [
  ["COc1ccccc1N1CCN(CCCCN2C(=O)C[C@H](NC(=O)C3CCCC3)C2=O)CC1", 6.32],
  ["O=C1C[C@H](NC(=O)C23CC4CC(CC(C4)C2)C3)C(=O)N1CCCCN1CCN(c2cccc(Cl)c2)CC1", 7.60],
  ["COc1ccccc1N1CCN(CCCCN2C(=O)CCC2=O)CC1", 5.82],
  ["O=C(N[C@H]1CC(=O)N(CCCCN2CCN(c3cccc(Cl)c3)CC2)C1=O)C1CCCC1", 7.33],
  ["O=C1CCC(=O)N1CCCCN1CCN(c2cccc(Cl)c2)CC1", 6.92]
]}

---

target.or.system: 5-hydroxytryptamine receptor 1A (Rattus norvegicus, UniProt P19327)
Sequence (P19327 whole entry): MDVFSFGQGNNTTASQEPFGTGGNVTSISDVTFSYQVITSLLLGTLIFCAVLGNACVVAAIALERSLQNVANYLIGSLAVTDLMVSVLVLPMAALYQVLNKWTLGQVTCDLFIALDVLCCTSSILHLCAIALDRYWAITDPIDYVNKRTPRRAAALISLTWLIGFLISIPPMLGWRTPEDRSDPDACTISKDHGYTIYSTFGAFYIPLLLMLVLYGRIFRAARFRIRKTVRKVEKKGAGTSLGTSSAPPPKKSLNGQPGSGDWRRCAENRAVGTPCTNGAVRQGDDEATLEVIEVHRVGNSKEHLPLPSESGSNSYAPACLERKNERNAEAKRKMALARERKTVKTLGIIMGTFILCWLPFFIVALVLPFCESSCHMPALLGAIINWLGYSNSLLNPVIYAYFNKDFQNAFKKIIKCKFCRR
The entries below are paired with their reported Ki.
quantity.measured: Ki (nM)

{"columns": ["chemical.structure", "target.or.system", "quantity.measured", "observed.result"],
 "data": [
  ["COc1ccccc1N1CCN(CCCCN2C(=O)C[C@H](NC(=O)C3CCCC3)C2=O)CC1", "5-hydroxytryptamine receptor 1A (Rattus norvegicus, UniProt P19327)", "Ki", 23],
  ["COc1ccccc1N1CCN(CCCCNC(=O)[C@@H]2CCCN2C(=O)C2CCCCC2)CC1", "5-hydroxytryptamine receptor 1A (Rattus norvegicus, UniProt P19327)", "Ki", 19],
  ["COc1ccccc1N1CCN(CCCCN2C(=O)C[C@H](NC(=O)C34CC5CC(CC(C5)C3)C4)C2=O)CC1", "5-hydroxytryptamine receptor 1A (Rattus norvegicus, UniProt P19327)", "Ki", 4],
  ["O=C(N[C@H]1CC(=O)N(CCCCN2CCN(c3cccc(Cl)c3)CC2)C1=O)C1CCCCC1", "5-hydroxytryptamine receptor 1A (Rattus norvegicus, UniProt P19327)", "Ki", 26],
  ["O=C1CCC(=O)N1CCCCN1CCN(c2cccc(Cl)c2)CC1", "5-hydroxytryptamine receptor 1A (Rattus norvegicus, UniProt P19327)", "Ki", 32],
  ["COc1ccccc1N1CCN(CCCCN2C(=O)C[C@H](NC(=O)C3CCCCC3)C2=O)CC1", "5-hydroxytryptamine receptor 1A (Rattus norvegicus, UniProt P19327)", "Ki", 19]
]}
